The origin of these recorded values is patent US20220251105A1.

# ASSAY INFO: toxicokinetics, exploratory 14-day mouse study
# Format: in vivo
# COND: both sexes, CD-1, mouse, plasma, po; mice, 75 mg/kg/day; read-out: Mean Day 14 AUC0-last
# Procedure: A single oral dose study with a 14-day repeat-dose phase was conducted in male and female mice. 250 mg/kg was selected as the highest dose for the repeat dose portion of the study.
MEASURED METRIC: AUC(0-t) (ng·h/mL)

CPD SMILES	MEASURED METRIC	MEASURED VALUE
CCOCc1cnc(Cl)nc1Oc1ccc2c(ccc3sc4c(c32)NC[C@@H](C)NC4=O)n1	AUC(0-t)	16600

----------
# ASSAY INFO: single oral dose pharmacokinetics in CD-1 mice
# Assay type: in vivo, mouse
# COND: CD-1, plasma; mouse, male, single oral 100 mg/kg
MEASURED METRIC: Cmax (ng/mL)

CPD SMILES	UNIT LABEL	MEASURED VALUE
CCOCc1cnc(Cl)nc1Oc1ccc2c(ccc3sc4c(c32)NC[C@@H](C)NC4=O)n1	ng/mL	6600
